Each item that follows carries a reported BT-474 pAkt IC50.
target under test: human HER3 endogenously expressed on human cancer cells (SK-Br-3, BT-474, MCF7) (human, UniProt P21860 20-1342)
procedure text: cell-based or functional assay
Please state the figure in pM; there is no need to write the unit.

Here's what some known entries look like.
MOR12604 (antibody, V domains shown, Tested as IgG) VH: QVQLVQSGAEVKKPGSSVKVSCKASGGTFSSYAISWVRQAPGQGLEWMGLIIPRYGKARYAQKFQGRVTITADESTSTAYMELSSLRSEDTAVYYCARNWPYYYMDFWGQGTLVTVSS VL: DIVLTQSPATLSLSPGERATLSCRASQNIVFNLAWYQQKPGQAPRLLIYDASNRATGVPARFSGSGSGTDFTLTISSLEPEDFAVYYCQQKKSMPLTFGQGTKVEIKR	225
MOR12615 (antibody, human IgG1, lambda, V domains shown, Tested as IgG) VH: QVQLVQSGAEVKKPGASVKVSCKASGYTFTSYDIHWVRQAPGQGLEWMGRIDPYSGNTNYAQKFQGRVTMTRDTSISTAYMELSRLRSEDTAVYYCARGSFYTRDSYFDVWGQGTLVTVSS VL: DIALTQPASVSGSPGQSITISCTGTSSDVGTYNQVSWYQQHPGKAPKLMIYGVSKRPSGVSNRFSGSKSGNTASLTISGLQAEDEADYYCSSRDLIGHYVFGGGTKLTVLG	466
MOR13666 (antibody, human IgG1, lambda, V domains shown, Tested as IgG) VH: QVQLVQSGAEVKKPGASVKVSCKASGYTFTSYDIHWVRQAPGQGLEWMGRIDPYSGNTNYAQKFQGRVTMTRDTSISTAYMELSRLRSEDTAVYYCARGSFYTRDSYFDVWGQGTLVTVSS VL: DIALTQPASVSGSPGQSITISCTGTSSDVGTYNQVSWYQQHPGKAPKLMIYGVSKRPSGVSNRFSGSKSGNTASLTISGLQAEDEADYYCSTTTYSFHMVFGGGTKLTVLG	275
MOR12603 (antibody, human IgG1, kappa, V domains shown, Tested as IgG) VH: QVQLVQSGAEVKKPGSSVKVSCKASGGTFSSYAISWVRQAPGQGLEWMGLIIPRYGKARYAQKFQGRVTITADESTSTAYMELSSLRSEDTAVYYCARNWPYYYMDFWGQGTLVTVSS VL: DIVLTQSPATLSLSPGERATLSCRASQNIVFNLAWYQQKPGQAPRLLIYDASNRATGVPARFSGSGSGTDFTLTISSLEPEDFAVYYCQQTKNRPPTFGQGTKVEIKR	137
MOR12605 (antibody, human IgG1, kappa, V domains shown, Tested as IgG) VH: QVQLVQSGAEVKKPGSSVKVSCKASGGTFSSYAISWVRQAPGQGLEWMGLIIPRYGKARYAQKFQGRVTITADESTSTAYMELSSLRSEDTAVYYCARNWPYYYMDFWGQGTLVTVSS VL: DIVLTQSPATLSLSPGERATLSCRASQNIVFNLAWYQQKPGQAPRLLIYDASNRATGVPARFSGSGSGTDFTLTISSLEPEDFAVYYCQQFRRKSNTFGQGTKVEIKR	173

Query binder follows.
Inquiry: Please give measured BT-474 pAkt IC50 of the following entry: MOR13654 (antibody, human IgG1, lambda, V domains shown, Tested as IgG) VH: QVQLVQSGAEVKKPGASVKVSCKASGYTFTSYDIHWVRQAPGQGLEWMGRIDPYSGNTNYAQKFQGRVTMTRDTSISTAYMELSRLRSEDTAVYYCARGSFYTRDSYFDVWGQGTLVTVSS VL: DIALTQPASVSGSPGQSITISCTGTSSDVGTYNQVSWYQQHPGKAPKLMIYGVSKRPSGVSNRFSGSKSGNTASLTISGLQAEDEADYYCQSRGEYRPGWVFGGGTKLTVLG
Reply text: 142
